Tested on: Influenza A/TW/70058/09 (H1N1)
experiment description: microbe, parasite or virus in culture
Format: cell-based
condition parameters: H1N1, read-out: EC50, viral plaque reduction assay
recorded metric: EC50 (µM)

                                smiles_data                 target_of_assay  result_unit  readout_value
0  Nc1c(S(=O)(=O)O)cc(Nc2cccc(S(=O)(=O)CCOS(=O)(=O)O)c2)c2c1C(=O)c1ccccc1C2=O  Influenza A/TW/70058/09 (H1N1)           µM            9.8
